Where these numbers come from: paper PMC6278378

Target: T1, CD4 (Homo sapiens, UniProt P01730)
T1 construct: endogenous in cells; host or cells: SUP-T1 cells
Test: CD4 competitive binding assay (FITC anti-human CD4 antibody, SUP-T1 cells)
Conditions: 100 μM; inhibition of anti-human CD4 antibody binding to SUP-T1 cells
Peptide text beside a SMILES is read from it.
endpoint label: Inhibition at 100 μM (%)
Field: numeric (%). Do not append units.

Previously resolved entries follow.
Cc1cc(=O)oc2c(O)c(O)ccc12; 10.83
CC(=O)/C=C(\c1ccccc1)c1c(O)c2ccccc2oc1=O; 15.80

Can you share its Inhibition at 100 μM (%)? I mean this compound: Nc1ccn([C@H]2O[C@H](CO)[C@@H]3[O][Sn]([c]4ccccc4)([c]4ccccc4)[O][C@H]32)c(=O)n1
33.09

Then CC(=O)c1c(O)c2ccccc2oc1=O ?
8.87

Ok, now CCC(=O)c1cc2ccc(O)cc2oc1=O
11.80

Also O=c1oc2cccc(O)c2c(O)c1Cc1ccccc1 , if possible.
8.47

Also CSCCC(NC(=O)C(CC(C)C)NC(=O)CNC(=O)C(NC(=O)C(Cc1ccccc1)NC(=O)C(CCC(N)=O)NC(=O)C(CC(=O)O)NC(=O)C(CO)NC(=O)C(CCCCN)NC(=O)C1CCCN1C(=O)C(NC(=O)C(N)CC(=O)O)C(C)C)C(C)C)C(N)=O (stereo not shown) [Compound 9] (H-DVPKSDQFVGLM-NH2; configuration not given here) ?
6.40
